Hey, just so you know, these numbers are from patent US10670605B2.

Listing of recorded isoTOP-ABPP ratio Q9UPQ0_C140 by entry.
target: cysteines in MDA-MB-231 and Ramos cells (Homo sapiens); test: Competitive isoTOP-ABPP in situ (fragment-treated cells); format: cell-based; conditions: 200 μM, insitu, 231
// keep it numeric: no unit symbol after the value

// below: answered compounds
compound: O=C(CCl)NC12CC3CC(CC(C3)C1)C2
assay_endpoint: isoTOP-ABPP ratio Q9UPQ0_C140
endpoint_value: 0.8
--
compound: O=C(CCl)N1CCN(S(=O)(=O)c2ccccc2F)CC1
assay_endpoint: isoTOP-ABPP ratio Q9UPQ0_C140
endpoint_value: 3.9
--
compound: CC1CCc2ccccc2N1C(=O)CCl (stereo not shown)
assay_endpoint: isoTOP-ABPP ratio Q9UPQ0_C140
endpoint_value: 20.0

--- query ---
Let me know recorded isoTOP-ABPP ratio Q9UPQ0_C140 for Cc1ccc(C=C(C#N)C(=O)NCCN2CCOCC2)cc1 , thanks.
0.5

----------
molecular target: cysteines in MDA-MB-231 and Ramos cells (Homo sapiens, UniProt Q8NFH5); experiment: Competitive isoTOP-ABPP in situ (fragment-treated cells); assay type: cell-based; details: 200 μM, insitu, 231
Sequence (Q8NFH5 whole entry, the tested form may be a part): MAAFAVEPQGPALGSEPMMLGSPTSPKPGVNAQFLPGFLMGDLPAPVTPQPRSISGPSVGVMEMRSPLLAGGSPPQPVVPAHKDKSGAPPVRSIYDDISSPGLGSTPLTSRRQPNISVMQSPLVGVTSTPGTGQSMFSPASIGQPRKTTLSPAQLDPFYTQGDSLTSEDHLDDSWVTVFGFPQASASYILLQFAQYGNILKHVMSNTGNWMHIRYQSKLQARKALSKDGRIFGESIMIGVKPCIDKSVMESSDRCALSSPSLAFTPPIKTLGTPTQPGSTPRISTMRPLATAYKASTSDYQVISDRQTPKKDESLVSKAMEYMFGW
Listing of recorded isoTOP-ABPP ratio Q8NFH5_C255 by entry.
// keep it numeric: no unit symbol after the value

compound: C=CC(=O)Nc1cc(F)c(N2CCN(C(=O)OC(C)(C)C)CC2)c(F)c1
isoTOP-ABPP ratio Q8NFH5_C255: 1.1

compound: O=C(CCl)NC(=O)NC12CC3CC(CC(C3)C1)C2
isoTOP-ABPP ratio Q8NFH5_C255: 12.4

compound: O=C(CCl)NCCc1c[nH]c2ccccc12
isoTOP-ABPP ratio Q8NFH5_C255: 1.5

Let me know recorded isoTOP-ABPP ratio Q8NFH5_C255 for CC1CCc2ccccc2N1C(=O)CCl (stereo not shown) , thanks.
5.5

----------
target: cysteines in MDA-MB-231 and Ramos cells (Homo sapiens); assay: Competitive isoTOP-ABPP in situ (fragment-treated cells); format: cell-based; details: 200 μM, insitu, 231
assay_endpoint: isoTOP-ABPP ratio Q9NRG0_C55
// keep it numeric: no unit symbol after the value

compound: O=C(CCl)NCCc1c[nH]c2ccccc12 [compound 13]
endpoint_value: 1.2
--
compound: CC(C)CCOCCNC(=O)CCl [compound 27]
endpoint_value: 0.9

Let me know recorded isoTOP-ABPP ratio Q9NRG0_C55 for O=C(CCl)NC(=O)NC12CC3CC(CC(C3)C1)C2 [compound 12] , thanks.
20.0

Let me know recorded isoTOP-ABPP ratio Q9NRG0_C55 for O=C(CCl)N1CCN(S(=O)(=O)c2ccccc2F)CC1 [compound 10] , thanks.
2.7

Let me know recorded isoTOP-ABPP ratio Q9NRG0_C55 for C=CC(=O)Nc1cc(F)c(N2CCN(C(=O)OC(C)(C)C)CC2)c(F)c1 [compound 38] , thanks.
1.0

----------
Listing of recorded isoTOP-ABPP ratio Q5MNZ6_C63 by entry.
target: cysteines in MDA-MB-231 and Ramos cells (Homo sapiens, UniProt Q5MNZ6); assay: Competitive isoTOP-ABPP in situ (fragment-treated cells); format: cell-based; settings: 200 μM, insitu, 231
Sequence (Q5MNZ6 whole entry, the tested form may be a part): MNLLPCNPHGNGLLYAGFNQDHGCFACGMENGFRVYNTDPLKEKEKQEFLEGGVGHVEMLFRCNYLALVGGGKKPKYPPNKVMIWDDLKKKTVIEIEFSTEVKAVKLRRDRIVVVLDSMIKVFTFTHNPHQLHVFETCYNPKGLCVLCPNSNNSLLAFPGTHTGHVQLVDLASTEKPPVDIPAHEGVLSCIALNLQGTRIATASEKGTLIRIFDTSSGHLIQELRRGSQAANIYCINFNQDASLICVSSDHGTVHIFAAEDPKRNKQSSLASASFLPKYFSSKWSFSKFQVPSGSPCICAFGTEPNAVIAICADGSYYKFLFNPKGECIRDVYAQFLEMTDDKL
// keep it numeric: no unit symbol after the value

// below: answered compounds
compound: COc1ccccc1OCCNC(=O)CCl
endpoint_value: 1.7
//
compound: CC1CCc2ccccc2N1C(=O)CCl (stereo not shown)
endpoint_value: 2.6
//
compound: O=C(CCl)N1CCN(S(=O)(=O)c2ccccc2F)CC1
endpoint_value: 3.6

--- query ---
Let me know recorded isoTOP-ABPP ratio Q5MNZ6_C63 for O=C(CCl)NC(=O)NC12CC3CC(CC(C3)C1)C2 , thanks.
20.0
